test system: Mus musculus; assay: Analgesic activity in ip dosed formalin-induced nociception Albino Swiss CD-1 mouse model assessed as reduction in time spent on licking formalin injected hind paw during neurogenic phase pretreated for 30 mins followed by formalin induction measured up to 5 mins; type: functional; conditions: Swiss CD-1, ip
Reported ED50 values for the following compounds.
Report the figure in mg/kg without appending any unit label.

These solved cases illustrate the format of a correct answer.
> print(dat)
                              smiles.string  property.label  recorded.result
1  O=C(C1=C(O)c2ccccc2S(=O)(=O)N1CCCN1CCN(c2cccc(C(F)(F)F)c2)CC1)c1ccccc1            ED50               27
2  O=C(C1=C(O)c2ccccc2S(=O)(=O)N1CC(=O)N1CCN(c2ccccc2)CC1)c1ccc(F)cc1            ED50             12.8
3  O=C(C1=C(O)c2ccccc2S(=O)(=O)N1CCCN1CCN(c2ccccc2)CC1)c1ccccc1            ED50             11.6
4  Cc1ccc(C(=O)C2=C(O)c3ccccc3S(=O)(=O)N2CC(=O)N2CCN(c3ccccc3)CC2)cc1            ED50             22.8

Q: State its ED50: O=C(C1=C(O)c2ccccc2S(=O)(=O)N1CC(=O)N1CCN(c2ncccn2)CC1)c1ccc(Br)cc1
A: 11.9

Q: State its ED50: O=C(C1=C(O)c2ccccc2S(=O)(=O)N1CC(=O)N1CCN(c2ccccc2)CC1)c1ccccc1
A: 13.9

====

assay: Ulcerogenic activity in Wistar (Krf:(WI) WU) rat assessed as change in gastric mucosa at 25 mg/kg measured after 24 hrs by stereo microscopic analysis; type: toxicity, organism-based; conditions: in vivo
PROPERTY LABEL: Activity

> print(dat)
                              smiles.string  recorded.result
1  O=C(C1=C(O)c2ccccc2S(=O)(=O)N1CC(=O)N1CCN(c2ccccc2)CC1)c1ccc(F)cc1        Non-Toxic
2  O=C(C1=C(O)c2ccccc2S(=O)(=O)N1CC(=O)N1CCN(c2ncccn2)CC1)c1ccc(Br)cc1        Non-Toxic
3  CN1C(C(=O)Nc2ccccn2)=C(O)c2ccccc2S1(=O)=O            Toxic
4  Cc1ccc(C(=O)C2=C(O)c3ccccc3S(=O)(=O)N2CC(=O)N2CCN(c3ccccc3)CC2)cc1        Non-Toxic

====

test: Neurotoxicity in Albino Swiss CD-1 mouse assessed as motor impairment at 20 mg/kg, ip measured for 1 min at 6 to 24 rpm by rotarod test; type: toxicity, organism-based; conditions: in vivo
PROPERTY LABEL: Activity

> print(dat)
                              smiles.string  property.label  recorded.result
1  Cc1ccc(C(=O)C2=C(O)c3ccccc3S(=O)(=O)N2CCCN2CCN(c3ccccc3)CC2)cc1        Activity        Non-Toxic
2  O=C(C1=C(O)c2ccccc2S(=O)(=O)N1CCCN1CCN(c2ccccc2)CC1)c1ccccc1        Activity        Non-Toxic
3  O=C(C1=C(O)c2ccccc2S(=O)(=O)N1CC(=O)N1CCN(c2ccccc2)CC1)c1ccc(F)cc1        Activity        Non-Toxic
4  O=C(C1=C(O)c2ccccc2S(=O)(=O)N1CC(=O)N1CCN(c2ccccc2)CC1)c1ccccc1        Activity        Non-Toxic

Q: State its Activity: Cc1ccc(C(=O)C2=C(O)c3ccccc3S(=O)(=O)N2CC(=O)N2CCN(c3ccccc3)CC2)cc1
A: Non-Toxic

====

assay: Acute toxicity in ip dosed Albino Swiss CD-1 mouse measured for 24 hrs; type: organism-based; conditions: in vivo
PROPERTY LABEL: LD50 at 24 h (mg/kg)
Report the figure in mg/kg without appending any unit label.

These solved cases illustrate the format of a correct answer.
> print(dat)
                                   compound  measurement.unit  recorded.result
1  CN1C(C(=O)Nc2ccccn2)=C(O)c2ccccc2S1(=O)=O [PIROXICAM]             mg/kg              360
2  O=C(C1=C(O)c2ccccc2S(=O)(=O)N1CC(=O)N1CCN(c2ccccc2)CC1)c1ccccc1             mg/kg              500

Q: State its LD50 at 24 h: Cc1ccc(C(=O)C2=C(O)c3ccccc3S(=O)(=O)N2CC(=O)N2CCN(c3ccccc3)CC2)cc1
A: 569

====

test: Acute toxicity in Albino Swiss CD-1 mouse assessed as mortality at 1000 mg/kg, ip measured after 72 hrs relative to control; type: organism-based; settings: in vivo
Reported mortality at 72 h values for the following molecules.
Report the figure in % without appending any unit label.

> print(dat)
                              smiles.string     property.label  recorded.result
1  O=C(C1=C(O)c2ccccc2S(=O)(=O)N1CC(=O)N1CCN(c2ccccc2)CC1)c1ccc(F)cc1  mortality at 72 h             66.7

Q: State its mortality at 72 h: O=C(C1=C(O)c2ccccc2S(=O)(=O)N1CC(=O)N1CCN(c2ccccc2)CC1)c1ccccc1
A: 83.3

Q: State its mortality at 72 h: Cc1ccc(C(=O)C2=C(O)c3ccccc3S(=O)(=O)N2CC(=O)N2CCN(c3ccccc3)CC2)cc1
A: 83.3

====

assay: Neurotoxicity in Albino Swiss CD-1 mouse assessed as motor impairment at 20 mg/kg, ip measured for 1 min at 6 to 24 rpm by rotarod test; assay type: toxicity, organism-based; conditions: in vivo
PROPERTY LABEL: Activity

> print(dat)
                              smiles.string  recorded.result
1  COc1ccccc1N1CCN(C(=O)CN2C(C(=O)c3ccccc3)=C(O)c3ccccc3S2(=O)=O)CC1        Non-Toxic
2  COc1ccccc1N1CCN(CCCN2C(C(=O)c3ccccc3)=C(O)c3ccccc3S2(=O)=O)CC1        Non-Toxic
3  O=C(C1=C(O)c2ccccc2S(=O)(=O)N1CCCN1CCN(c2cccc(C(F)(F)F)c2)CC1)c1ccccc1        Non-Toxic
4  O=C(C1=C(O)c2ccccc2S(=O)(=O)N1CC(=O)N1CCN(c2ncccn2)CC1)c1ccc(Br)cc1        Non-Toxic

====

test: Acute toxicity in Albino Swiss CD-1 mouse assessed as mortality at 250 mg/kg, ip measured after 72 hrs relative to control; assay type: organism-based; settings: in vivo
Reported mortality at 72 h values for the following molecules.
Report the figure in % without appending any unit label.

> print(dat)
                              smiles.string     property.label  recorded.result
1  O=C(C1=C(O)c2ccccc2S(=O)(=O)N1CC(=O)N1CCN(c2ccccc2)CC1)c1ccccc1  mortality at 72 h             16.7

Q: State its mortality at 72 h: Cc1ccc(C(=O)C2=C(O)c3ccccc3S(=O)(=O)N2CC(=O)N2CCN(c3ccccc3)CC2)cc1
A: 0

====

system: Mus musculus; experiment: Analgesic activity in formalin-induced nociception Albino Swiss CD-1 mouse model assessed as time spent on licking formalin injected hind paw during inflammatory phase at 20 mg/kg, ip pretreated for 30 mins followed by formalin induction measured after 15 to 30 mins (reference value: 138.5 +/- 8.55 s); type: functional
Reported Time values for the following compounds.
Report the figure in s without appending any unit label.

These solved cases illustrate the format of a correct answer.
> print(dat)
                              smiles.string  recorded.result
1  O=C(C1=C(O)c2ccccc2S(=O)(=O)N1CCCN1CCN(c2cccc(C(F)(F)F)c2)CC1)c1ccccc1             48.6
2  Cc1ccc(C(=O)C2=C(O)c3ccccc3S(=O)(=O)N2CC(=O)N2CCN(c3ccccc3)CC2)cc1            28.86
3  O=C(C1=C(O)c2ccccc2S(=O)(=O)N1CC(=O)N1CCN(c2ccccc2)CC1)c1ccc(F)cc1            30.67

Q: State its Time: CN1C(C(=O)Nc2ccccn2)=C(O)c2ccccc2S1(=O)=O
A: 67.43

Q: State its Time: O=C(C1=C(O)c2ccccc2S(=O)(=O)N1CC(=O)N1CCN(c2ncccn2)CC1)c1ccc(Br)cc1
A: 48.6

Q: State its Time: Cc1ccc(C(=O)C2=C(O)c3ccccc3S(=O)(=O)N2CCCN2CCN(c3ccccc3)CC2)cc1
A: 35.33

Q: State its Time: O=C(C1=C(O)c2ccccc2S(=O)(=O)N1CCCN1CCN(c2ccccc2)CC1)c1ccccc1
A: 44.14

Q: State its Time: COc1ccccc1N1CCN(CCCN2C(C(=O)c3ccccc3)=C(O)c3ccccc3S2(=O)=O)CC1
A: 35.86

Q: State its Time: O=C(C1=C(O)c2ccccc2S(=O)(=O)N1CC(=O)N1CCN(c2ccccc2)CC1)c1ccccc1
A: 49.71

Q: State its Time: COc1ccccc1N1CCN(C(=O)CN2C(C(=O)c3ccccc3)=C(O)c3ccccc3S2(=O)=O)CC1
A: 55.71
